# testedOn: Cdk4/CyclinD1 (Homo sapiens (Human))
# testSummary: Cdk4 kinase inhibition assay with recombinant Cdk4/CyclinD1, Rb substrate, [33P]-ATP filter plate
# measurementContext: 25 μM ATP, read-out: Cdk 4 IC50
pIC50: −log10 of the molar value.
measurementLabel: pIC50

Sample records with pIC50:
Fc1nccc2c3cnc(Nc4ccc(CN5CCNCC5)cn4)nc3n(C3CCCC3)c12 [Example 213]: 6.69
c1cc2c3cnc(Nc4ccc(N[C@@H]5CCNC5)cn4)nc3n(C3CCCC3)c2cn1 [Example 63]: 8.47
c1ccc2c(c1)c1cnc(Nc3ccc(N4CCNCC4)cn3)nc1n2C1CCOCC1 [Example 38]: 8.68

(1) C[C@H]1CN(c2ccc(Nc3ncc4c5ccncc5n([C@H]5CCC[C@H]5O)c4n3)nn2)CCN1 [Example 363]
(2) CN(C)CC(=O)N1CCN(c2ccc(Nc3ncc4c5ccnc(F)c5n(C5CCCC5)c4n3)nc2)CC1 [Example 193]
*Q* Which of these two has the smaller recorded pIC50: 1 or 2 ? Selection: enter the item's label.
*A* 1

(I) CN1CCOC2(CCN(c3ccc(Nc4ncc5c6ccncc6n(C6CCCC6)c5n4)nn3)CC2)C1 [Example 251]
(II) c1ccc2c(c1)CCC2n1c2cnccc2c2cnc(Nc3ccc(N4CCNCC4)cn3)nc21 (centres unmarked) [Example 25]
*Q* Compare I and II and name the one whose reported pIC50 is smaller. Write the label of whichever entry you select.
*A* II

* * *

# testedOn: Cdk4/CyclinD1 (Homo sapiens (Human), UniProt P11802)
# Sequence (P11802 whole entry): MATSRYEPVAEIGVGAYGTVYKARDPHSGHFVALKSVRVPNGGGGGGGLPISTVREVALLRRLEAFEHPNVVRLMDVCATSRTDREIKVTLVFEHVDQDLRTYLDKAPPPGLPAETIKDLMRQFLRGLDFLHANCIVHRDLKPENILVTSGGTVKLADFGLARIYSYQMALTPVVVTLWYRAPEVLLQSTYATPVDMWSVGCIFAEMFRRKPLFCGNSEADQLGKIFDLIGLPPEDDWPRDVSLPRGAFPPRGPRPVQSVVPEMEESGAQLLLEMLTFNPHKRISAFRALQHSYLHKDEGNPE
# Sequence (P24385 whole entry partner): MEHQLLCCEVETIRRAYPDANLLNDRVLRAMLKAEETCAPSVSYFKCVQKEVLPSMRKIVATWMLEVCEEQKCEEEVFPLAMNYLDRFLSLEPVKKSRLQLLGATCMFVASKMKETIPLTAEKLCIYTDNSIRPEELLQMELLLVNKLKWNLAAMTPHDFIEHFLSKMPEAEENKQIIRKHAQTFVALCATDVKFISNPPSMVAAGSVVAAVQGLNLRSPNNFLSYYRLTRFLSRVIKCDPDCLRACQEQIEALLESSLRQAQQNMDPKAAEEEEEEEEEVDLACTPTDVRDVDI
# testSummary: Cdk4 kinase inhibition assay with recombinant Cdk4/CyclinD1, Rb substrate, [33P]-ATP filter plate
# measurementContext: 25 μM ATP, read-out: Cdk 4 IC50
pIC50: −log10 of the molar value.
measurementLabel: pIC50

Consider the following illustrative entries.
O[C@H]1CC[C@H](n2c3cnccc3c3cnc(Nc4ccc(N5CCNCC5)cn4)nc32)CC1: 8.60
C[C@@H](CO)n1c2cnccc2c2cnc(Nc3ccc(N4CCC(N(C)C)CC4)cn3)nc21: 6.79
NC1[C@H]2CN(c3ccc(Nc4ncc5c6ccncc6n(C6CCCC6)c5n4)nn3)C[C@@H]12 (some centres unmarked): 7.57
c1cc2c3cnc(Nc4ccc(NCC5CNC5)nn4)nc3n(C3CCCC3)c2cn1: 6.37
C[C@H](CO)n1c2cnccc2c2cnc(Nc3ccc(N4CCC(N(C)C)CC4)cn3)nc21: 7.30
CC1(C)CN(c2ccc(Nc3ncc4c5ccncc5n(C5CCCC5)c4n3)nn2)CCN1: 8.66

(A) OCC(CO)NC1CCN(c2ccc(Nc3ncc4c5ccncc5n(C5CCCC5)c4n3)nn2)CC1
(B) O=S(=O)(c1ccc(Nc2ncc3c4ccnc(F)c4n(C4CCCC4)c3n2)nc1)N1CCNCC1
*Q* Smaller pIC50 value, A vs B ? Your choice should be expressed through its label.
*A* B
(B: 7.82, A: 8.66)

* * *

# testedOn: Cdk6/CyclinD3 (Homo sapiens (Human), UniProt Q00534)
# Sequence (Q00534 whole entry): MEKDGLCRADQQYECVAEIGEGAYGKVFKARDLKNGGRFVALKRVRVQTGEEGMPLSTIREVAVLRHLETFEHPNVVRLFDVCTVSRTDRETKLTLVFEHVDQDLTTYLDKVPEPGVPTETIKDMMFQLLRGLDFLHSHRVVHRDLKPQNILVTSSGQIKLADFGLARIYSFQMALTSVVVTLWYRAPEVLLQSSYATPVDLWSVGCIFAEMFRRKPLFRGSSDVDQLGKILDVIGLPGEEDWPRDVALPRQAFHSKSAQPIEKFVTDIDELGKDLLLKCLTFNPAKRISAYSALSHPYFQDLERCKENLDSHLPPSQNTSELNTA
# Sequence (P30281 whole entry partner): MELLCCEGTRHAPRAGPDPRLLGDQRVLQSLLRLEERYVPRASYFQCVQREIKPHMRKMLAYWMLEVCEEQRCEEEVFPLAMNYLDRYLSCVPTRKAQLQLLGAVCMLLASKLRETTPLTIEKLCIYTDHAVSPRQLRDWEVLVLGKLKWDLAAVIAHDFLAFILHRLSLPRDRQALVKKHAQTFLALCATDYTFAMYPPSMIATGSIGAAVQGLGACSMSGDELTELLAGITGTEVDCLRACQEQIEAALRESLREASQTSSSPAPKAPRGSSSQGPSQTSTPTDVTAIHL
# testSummary: Cdk6 kinase inhibition assay with recombinant Cdk6/CyclinD3, Rb substrate, [33P]-ATP filter plate
# measurementContext: 25 μM ATP, read-out: Cdk 6 IC50
# Procedure: The Cdk4 and Cdk6 inhibitory activity of the compounds is measured with a kinase inhibition assay using recombinant Cdk4/CyclinD1 or Cdk6/CyclinD3 protein complexes. The protein substrate used in the assay is the retinoblastoma protein (Rb). […] The amount of the phosphorylated Rb is determined with a TopCount (PerkinElmer). The IC50 of a compound is determined by nonlinear regression curve fitting using software program Prism 5 (GraphPad Software).
pIC50: −log10 of the molar value.
measurementLabel: pIC50

c1cc2c3cnc(Nc4ccc(N5CCNCC5)nc4)nc3n(C3CCCC3)c2cn1: 8.89
c1cc2c3cnc(Nc4nc(CN5CCNCC5)cs4)nc3n(C3CCCC3)c2cn1: 8.21
c1cc2c3cnc(Nc4ccc(NC5CCNCC5)nn4)nc3n(C3CCCC3)c2cn1: 7.91

(A) c1cc2c3cnc(Nc4ccc(N5CCNCC5)nn4)nc3n(C3CCCC3)c2cn1
(B) CN(C)[C@@H]1CCN(c2ccc(Nc3ncc4c5ccncc5n(C5CCCC5)c4n3)nc2)C1
(C) CC1CN(c2ccc(Nc3ncc4c5ccnc(F)c5n(C5CCCC5)c4n3)nc2)CC(C)N1 (centres unmarked)
*Q* Arrange the 3 molecules from largest to smallest pIC50. # answer = labels listed in requested order
*A* A, C, B
(A: 8.18, C: 7.66, B: 7.40)
